TARGET_OR_SYSTEM: DR1Dw1 (Homo sapiens, UniProt P01903+P01911, A100R/D57E/F55L/F60I/F76Y/I96L/L162R/M171V/P40L/Q125E/R42F/V115G/Y59C)
Construct: these are Drosophila transmembrane DR; made in house
ASSAY_NOTES: Inhibition of biotinylated RMBP 90-102 peptide binding to MHC class II DR1 (europium-streptavidin capture assay)
STUDY_CONDITIONS: 5 hours incubation at 37° C., 0.3 nM biotinylated RMBP 90-102, 1.25 nM DR1Dw1, pH 6.5, read-out: IC50 /nM @ 5 Hrs
# IC50 per entry
MEASURED_PROPERTY: IC50 (nM)

{"columns": ["SUBSTANCE", "REPORTED"],
 "data": [
  ["α-(3-CYCLOHEXYLPROPYL)-(L)(3-PYRIDYL)Ala Nva.psi.[(E)CH=CH]Leu-NH2 TFA SALT [Example 9]", 16600],
  ["α-(3-CYCLOHEXYLPROPYL)-(L)(ε-NICOTINOYL)Lys Nva.psi.[(E)CH=CH]Leu-NH2 TFA SALT [Example 8]", 5600],
  ["N-(3-CYCLOHEXYLPROPYL)-(L)(ε-NICOTINOYL)Lys Nva.psi.[E,CH=CH]Nle-NH2 TFA SALT [Example 7]", 2280]
]}
